- Test system: Hamster Melanoma RPM1 1846 tumor cells
- TEST_DESCRIPTION: hamster cheek pouch (HCP) angiogenesis inhibition, 1846 tumor cell stimulus
- Format: in vivo, Male Syrian Golden hamsters
- PARTICULARS: Table 1; 3×10^5 tumor cells; between 0.5 and 4 mg/kg s.c. daily; each number independent result, average of six animals

# MOLECULE, % Inhibition HCP Stimulus 1846, %
records = [
    ("CCCC(=O)O[C@]1(C(=O)OC)[C@@H](C)C[C@H]2[C@@H]3CC(F)C4=CC(=O)C=C[C@]4(C)[C@@]3(F)[C@@H](O)C[C@@]21C (some centres unmarked)", 26),
    ("CCC(=O)O[C@]1(C(=O)OC)[C@@H](C)C[C@H]2[C@@H]3CC(F)C4=C(F)C(=O)C=C[C@]4(C)[C@@]3(F)[C@@H](O)C[C@@]21C (some centres unmarked)", 70),
    ("CCCC(=O)O[C@]1(C(=O)OC)[C@H](C)C[C@H]2[C@@H]3CC(F)C4=CC(=O)C=C[C@]4(C)[C@@]3(F)[C@@H](O)C[C@@]21C (some centres unmarked)", 32),
    ("CCC(=O)O[C@]1(C(=O)OC)[C@@H](C)C[C@H]2[C@@H]3CCC4=CC(=O)C=C[C@]4(C)[C@@]3(F)[C@@H](O)C[C@@]21C", 40),
    ("CCCCC(=O)O[C@]1(C(=O)OC)[C@H](C)C[C@H]2[C@@H]3CC(F)C4=CC(=O)C=C[C@]4(C)[C@@]3(F)[C@@H](O)C[C@@]21C (some centres unmarked)", 24),
]
